- System: MHH-CALL-2
- Assay Summary: selective drug sensitivity score (sDSS, relative to normal bone marrow) (sDSS (score)); higher = more potent and effective on the cell line relative to normal bone marrow cells;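 also: ALL cell lines in 384-well plates, five doses spanning 10,000-fold, each plate scaled between vehicle and 100 µmol/L benzalkonium chloride controls, sDSS an adapted area-under-curve metric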
- Reported Conditions: 72 h
Classify by measured selective drug sensitivity score: t if it is equal to or exceeds 2, f if it is smaller.

molecule="CNC(=O)c1cccc(-c2ccc3c(N4CCOC[C@@H]4C)nc(N4CCOC[C@@H]4C)nc3n2)c1 [Vistusertib] (top concentration 10000 nM)" category_label=t
molecule="Cc1ccc(-n2nc(C(C)(C)C)cc2NC(=O)Nc2ccc(OCCN3CCOCC3)c3ccccc23)cc1 [Doramapimod] (top concentration 10000 nM)" category_label=t
molecule="CC[C@@H]1CN(C(=O)NCC(F)(F)F)C[C@@H]1c1cnc2cnc3[nH]ccc3n12 [Upadacitinib] (top concentration 10000 nM)" category_label=f
molecule="COc1c(C)cnc(Cn2cnc3c(Cl)nc(N)nc32)c1C [BIIB021] (top concentration 10000 nM)" category_label=t
molecule="CC(=O)O[C@@]12CO[C@@H]1C[C@H](O)[C@@]1(C)C(=O)[C@H](O)C3=C(C)[C@@H](OC(=O)[C@H](O)[C@@H](NC(=O)OC(C)(C)C)c4ccccc4)C[C@@](O)([C@@H](OC(=O)c4ccccc4)[C@H]21)C3(C)C [Docetaxel] (top concentration 1000 nM)" category_label=t
molecule="CON(C)C(=O)N1N=C(c2cc(F)ccc2F)S[C@@]1(CCCN)c1ccccc1 [Filanesib] (top concentration 1000 nM)" category_label=t
molecule="O=C(/C=C/c1cccc(S(=O)(=O)Nc2ccccc2)c1)NO [Belinostat] (top concentration 10000 nM)" category_label=t
molecule="Cc1nc(Nc2n[nH]c3c2CN(C(=O)N[C@H](CN(C)C)c2ccccc2)C3(C)C)c2sccc2n1 (top concentration 10000 nM)" category_label=f
molecule="O=C(O)CCCCC(CCSCc1ccccc1)SCc1ccccc1 (centres undefined) [Devimistat (CPI-613)] (top concentration 10000 nM)" category_label=f
molecule="C[C@@H]1CCN(C(=O)CC#N)C[C@@H]1N(C)c1ncnc2[nH]ccc12 [Tofacitinib] (top concentration 5000 nM)" category_label=f
molecule="O=C(O)CC[C@H]1CC[C@@](c2cc(F)ccc2F)(S(=O)(=O)c2ccc(Cl)cc2)CC1 [MK-0752] (top concentration 1000 nM)" category_label=t
molecule="Nc1cc(C(F)(F)F)c(-c2cc(N3CCOCC3)nc(N3CCOCC3)n2)cn1 [Buparlisib] (top concentration 10000 nM)" category_label=t
molecule="CC[C@H](CC#N)OC(=O)N[C@@H](C)c1cccc(NC(=O)Nc2ccc(-c3cnco3)c(OC)c2)c1 [AVN944] (top concentration 10000 nM)" category_label=t
molecule="Nc1nc(Nc2ccc3c(c2)CC[C@@H](N2CCCC2)CC3)nn1-c1cc2c(nn1)-c1ccccc1CCC2 [BGB324] (top concentration 10000 nM)" category_label=f
molecule="CCN(CC)CCNC(=O)c1c(C)[nH]c(/C=C2\\C(=O)Nc3ccc(F)cc32)c1C [Sunitinib] (top concentration 1000 nM)" category_label=f
molecule="O=C(/C=C\\n1cnc(-c2cc(C(F)(F)F)cc(C(F)(F)F)c2)n1)NNc1cnccn1 [Selinexor] (top concentration 10000 nM)" category_label=t
molecule="CN1CCN(C(=O)c2ccc3cc(CCNc4ncnc5ccc(C#N)cc45)ccc3c2)CC1 [Senexin_B] (top concentration 1000 nM)" category_label=f
molecule="O=C(Nc1nc2cccc(-c3ccc(CN4CCS(=O)(=O)CC4)cc3)n2n1)C1CC1 [Filgotinib] (top concentration 10000 nM)" category_label=t
molecule="C[C@@H]1CN(C(=O)c2ccc(NC(=O)c3cc(O[C@H](C)c4c(Cl)ccc(F)c4Cl)c(N)nn3)cc2)C[C@H](C)N1 [Ensartinib] (top concentration 1000 nM)" category_label=f
molecule="CN[C@@H](C)C(=O)N[C@H](C(=O)N1CCC[C@H]1c1nc(C(=O)c2ccc(F)cc2)cs1)C1CCCCC1 [NVP-LCL161] (top concentration 25000 nM)" category_label=t
molecule="CNc1ncc2cc(-c3cc(NC(=O)NCCC(C)(C)C)c(F)cc3C)c(C)nc2n1 (top concentration 10000 nM)" category_label=t
molecule="CC1(C)C(C(=O)Nc2ccc(S(=O)(=O)c3ccc(NC(=O)C4C(C)(C)C4(C)C)cc3)cc2)C1(C)C [BRD7116] (top concentration 10000 nM)" category_label=f
molecule="CCNc1nc(Nc2cc(F)c(C(=O)N3CCOCC3)cc2OC)ncc1C(F)(F)F [GNE-7915] (top concentration 1000 nM)" category_label=f
molecule="CCC1(c2ccc(N)cc2)CCC(=O)NC1=O (centres undefined) [Aminoglutethimide] (top concentration 10000 nM)" category_label=t

###

- Tested on: MOLT-14
- Assay Summary: selective drug sensitivity score (sDSS, relative to normal bone marrow) (sDSS (score)); higher = more potent and effective on the cell line relative to normal bone marrow cells
- Reported Conditions: 72 h
Measured Endpoint: selective drug sensitivity score

compound="CCNc1nc(Nc2cc(F)c(C(=O)N3CCOCC3)cc2OC)ncc1C(F)(F)F [GNE-7915] (top concentration 1000 nM)" reported_measurement=-0.06
compound="CCCCOc1nc(N)c2c(n1)N(Cc1cccc(CN3CCCC3)c1)CC(=O)N2 [Vesatolimod] (top concentration 10000 nM)" reported_measurement=-3.52
compound="CO[C@H]1C[C@@H]2CC[C@@H](C)[C@@](O)(O2)C(=O)C(=O)N2CCCC[C@H]2C(=O)O[C@H]([C@H](C)C[C@@H]2CC[C@@H](OCCO)[C@H](OC)C2)CC(=O)[C@H](C)/C=C(\\C)[C@@H](O)[C@@H](OC)C(=O)[C@H](C)C[C@H](C)/C=C/C=C/C=C/1C [Everolimus] (top concentration 100 nM)" reported_measurement=-2.2
compound="C[C@@H]1COCCN1c1cc(C2([S@](C)(=N)=O)CC2)nc(-c2cc[nH]c3nccc2-3)n1 [AZD6738] (top concentration 25000 nM)" reported_measurement=11.5
compound="c1cn2cc(-c3ccc4cn[nH]c4c3)nc(Nc3ccc(N4CCOCC4)cc3)c2n1 [Entospletinib] (top concentration 5000 nM)" reported_measurement=-0.64
compound="CC(O)c1cc(C(=O)N[C@@H](C)Cn2ccc(-c3ccc(C#N)c(Cl)c3)n2)n[nH]1 (some centres not stated) [ODM-201] (top concentration 2500 nM)" reported_measurement=0.82
compound="C=CC(=O)Nc1cc(Nc2nccc(-c3cn(C)c4ccccc34)n2)c(OC)cc1N(C)CCN(C)C [Osimertinib] (top concentration 2500 nM)" reported_measurement=0.08
compound="CC[C@@H]1C(=O)OC[C@@H]1Cc1cncn1C [Pilocarpine] (top concentration 40000 nM)" reported_measurement=-0.36
compound="Nc1cc(F)ccc1NC(=O)c1ccc(CNC(=O)/C=C/c2cccnc2)cc1 [Tucidinostat] (top concentration 10000 nM)" reported_measurement=3.94
compound="O=C(Nc1cc(Cl)cc2c1[nH]c1cnccc12)c1cccnc1 [PS-1145] (top concentration 25000 nM)" reported_measurement=-0.46
compound="Cc1nc(=O)c2cc(CN(C)c3ccc(C(=O)N[C@@H](CCC(=O)O)C(=O)O)s3)ccc2[nH]1 [Raltitrexed] (top concentration 1000 nM)" reported_measurement=17.7
compound="O=C(O)c1ccc2c(c1)nc(Nc1cccc(Cl)c1)c1ccncc12 [Silmitasertib] (top concentration 10000 nM)" reported_measurement=4.1

###

- System: P30-OHKUBO
- Assay Summary: selective drug sensitivity score (sDSS, relative to normal bone marrow) (sDSS (score)); higher = more potent and effective on the cell line relative to normal bone marrow cells
- Reported Conditions: 72 h
Measured Endpoint: selective drug sensitivity score

molecule="O=C1CCC(N2C(=O)c3ccccc3C2=O)C(=O)N1 (stereo unspecified) [Thalidomide] (top concentration 10000 nM)" reported_measurement=-0.14
molecule="CON(C)C(=O)N1N=C(c2cc(F)ccc2F)S[C@@]1(CCCN)c1ccccc1 [Filanesib] (top concentration 1000 nM)" reported_measurement=9.9
molecule="Cc1nc2cccc(N)c2c(=O)n1C1CCC(=O)NC1=O (stereo unspecified) [Avadomide (CC122)] (top concentration 10000 nM)" reported_measurement=5.9
molecule="CNc1ncc2cc(-c3cc(NC(=O)NCCC(C)(C)C)c(F)cc3C)c(C)nc2n1 (top concentration 10000 nM)" reported_measurement=5.86
molecule="CC(C)[C@H]1C(=O)N[C@@H](CCCNC(=N)N)C(=O)NCC(=O)N[C@@H](CC(=O)O)C(=O)N[C@H](Cc2ccccc2)C(=O)N1C [Cilengitide] (top concentration 10000 nM)" reported_measurement=4.2
molecule="O=C(Nc1nc2cccc(-c3ccc(CN4CCS(=O)(=O)CC4)cc3)n2n1)C1CC1 [Filgotinib] (top concentration 10000 nM)" reported_measurement=2.56
